Data origin: PubChem BioAssay AID651581

- measuredTarget: Endothelial PAS domain-containing protein 1 (Homo sapiens) (UniProt Q99814)
- assayExplanation: HIF-2a and HIF-1a reporter inhibition panel, dose response, selectivity assay for HIF-2a inhibitor project, cell-based, luminescence (AID 651581)
- protocolConditions: HIF-2a, run 2
pIC50: −log10 of the molar value.
Consider the following compounds and their measured pIC50 readings.

# smilesInput, resultComparator, pIC50
measured = [
    ("O=C(O)COc1ccc2oc3ccccc3c2c1", "=", 4.90),
    ("COc1ccc(OCc2cccc(C(=O)Nc3cc(C)on3)c2)cc1", ">", 4.52),
    ("CN(C)S(=O)(=O)c1cccc(NC(=O)CSc2cccc3cccnc23)c1", "=", 5.25),
]

====

- measuredTarget: Endothelial PAS domain-containing protein 1 (Homo sapiens)
- assayExplanation: HIF-2a and HIF-1a reporter inhibition panel, dose response, selectivity assay for HIF-2a inhibitor project, cell-based, luminescence (AID 651581)
- protocolConditions: HIF-2a, run 1
pIC50: −log10 of the molar value.
Consider the following molecules and their measured pIC50 readings.
quantityKind: pIC50

# smilesInput, quantityKind, resultComparator, testValue
rows = [
    ("O=C(Nc1ccc(N2CCOCC2)cc1)c1cnccn1", "pIC50", "=", 5.02),
    ("COc1ccc(OCc2cccc(C(=O)Nc3cc(C)on3)c2)cc1", "pIC50", ">", 4.52),
    ("COc1ccc(CNC(=O)CCc2c(C)nc3cc(-c4ccccc4OC)nn3c2C)cc1", "pIC50", "=", 5.00),
    ("O=C(O)COc1ccc2oc3ccccc3c2c1", "pIC50", "=", 4.88),
    ("CN(C)c1c([N+](=O)[O-])cc(N2C(=O)C=CC2=O)cc1[N+](=O)[O-]", "pIC50", "=", 5.08),
]

====

- measuredTarget: Endothelial PAS domain-containing protein 1 (Homo sapiens)
- assayExplanation: HIF-2a and HIF-1a reporter inhibition panel, dose response, selectivity assay for HIF-2a inhibitor project, cell-based, luminescence (AID 651581)
- protocolConditions: HIF-2a, run 1
Consider the following compounds and their measured IC50 readings.
quantityKind: IC50 (µM)

# smilesInput, resultComparator, testValue
measured = [
    ("NNC(=O)c1cccc(COc2ccc3c(c2)CCC3)c1", "<", 30),
    ("Nc1ccc(-c2cc3ccccc3c(=O)o2)cc1", "<", 1),
    ("O=C(O)c1cccc(CSc2nnc(COc3ccccc3)o2)c1", "=", 6.48),
    ("Cc1c(CCC(=O)N2CCC(C(=O)O)(c3ccccc3)CC2)c(=O)oc2cc3oc4c(c3cc12)CCCC4", "=", 1.57),
    ("O=C(Nc1ccc(F)cc1)c1nc(S(=O)(=O)Cc2ccccc2)ncc1Cl", "=", 7.71),
    ("CC(=O)c1ccc(NC(=O)c2cnn3ccccc23)cc1", "=", 11.7),
    ("COc1ccc(-n2nc3ccc(N)cc3n2)cc1", "=", 7.4),
    ("CC(=O)Nc1ccc(OS(=O)(=O)c2c(C)cc(C)cc2C)cc1", "=", 12.5),
    ("O=C1C=C(c2ccccc2)C(=O)N1Nc1ccccc1", "=", 11.2),
    ("CCOC(=O)c1c(C)nn(-c2ccc(NC(=O)c3c(C)noc3C)cc2)c1C", "=", 4.25),
    ("CCOC(=O)C1CCN(C(=O)CCc2c(C)nc3cc(-c4ccccc4)nn3c2C)CC1", "=", 1.51),
    ("CCOC(=O)c1cccc(COC(=O)c2cccc(-c3nnc(-c4ccccc4)o3)c2)c1", "=", 13.2),
    ("CC(C)(C)c1ccc(-c2noc(CCC(=O)Nc3cccnc3)n2)cc1", "<", 1),
    ("Cc1nc2cc(-c3ccccc3)nn2c(C)c1CCC(=O)N1CCC2(CC1)OCCO2", "=", 0.742),
    ("Cc1nc2cc(-c3ccccc3)nn2c(C)c1CCC(=O)N1CCN(c2ccccc2)CC1", "=", 0.978),
    ("Cc1nc(SCc2ccc(C(=O)O)cc2)nc2c1CCCC2", "=", 4.31),
    ("CSC(SC)=C(C#N)C(=O)c1ccccc1", "=", 6.56),
    ("CCOc1ccc(C(=O)Nc2cccc(C(=O)O)c2C)cc1Cl", "=", 13.3),
    ("Cc1c(CCC(=O)N2CCC[C@H]2C(=O)O)c(=O)oc2c(C)c3oc4c(c3cc12)CCCC4", "=", 4.63),
    ("COc1cc(N2C(=O)C=CC2=O)c(OC)cc1Cl", "=", 8.69),
    ("CC(=O)Nc1ccc(NC(=O)c2oc3cc(C)c(C)cc3c2C)cc1", "=", 1.62),
    ("CC(C)(C)c1ccc(-c2noc(CCC(=O)NCc3ccco3)n2)cc1", "<", 1),
    ("N#Cc1ccccc1COc1ccc(/C=C/C(=O)O)cc1", "=", 0.37),
    ("CSc1ccc(/C=N/Nc2cccc(C(=O)O)c2)cc1", "=", 5.25),
    ("Cc1cc(NC(=O)c2ccccc2)c(Cl)cc1N", "=", 2.56),
    ("COc1ccc(OCc2cccc(C(=O)NN)c2)cc1", "=", 7.68),
    ("N#Cc1c(NC(=O)CCCC(=O)O)sc2c1CCCCC2", "=", 51.8),
]

====

Consider the following compounds and their measured IC50 readings.
- measuredTarget: Endothelial PAS domain-containing protein 1 (Homo sapiens)
- assayExplanation: HIF-2a and HIF-1a reporter inhibition panel, dose response, selectivity assay for HIF-2a inhibitor project, cell-based, luminescence (AID 651581)
- protocolConditions: HIF-2a, run 2

# compound, IC50
measured = [
    ("CCOc1ccc(C(=O)Nc2nnc(SCC(=O)NCC3CCCO3)s2)cc1 (stereo not drawn)", "< 30 µM"),
    ("O=C(O)c1ccc(N/N=C/c2ccc3ncccc3c2)cc1", "> 99 µM"),
    ("CCOC(=O)c1sc(NC(=O)c2cc3c(s2)CCC(C)C3)nc1C (stereo not drawn)", "> 99 µM"),
]

====

- measuredTarget: Endothelial PAS domain-containing protein 1 (Homo sapiens)
- assayExplanation: HIF-2a and HIF-1a reporter inhibition panel, dose response, selectivity assay for HIF-2a inhibitor project, cell-based, luminescence (AID 651581)
- protocolConditions: HIF-2a, mean of runs

# smilesInput, IC50
records = [
    ("CC(=O)Nc1ccc(OS(=O)(=O)c2ccc(C)cc2C)cc1", "3.79 µM"),
    ("Cc1nc2cc(-c3ccccc3)nn2c(C)c1CCC(=O)N1CCC2(CC1)OCCO2", "0.832 µM"),
    ("CN(C)c1c([N+](=O)[O-])cc(N2C(=O)C=CC2=O)cc1[N+](=O)[O-]", "8.6 µM"),
    ("Cc1ccc(NC(=S)NNc2ncc(C(F)(F)F)cc2Cl)cc1", "4.58 µM"),
]

====

- measuredTarget: Endothelial PAS domain-containing protein 1 (Homo sapiens)
- assayExplanation: HIF-2a and HIF-1a reporter inhibition panel, dose response, selectivity assay for HIF-2a inhibitor project, cell-based, luminescence (AID 651581)
- protocolConditions: HIF-2a PANC, run 1
pIC50: −log10 of the molar value.
Consider the following molecules and their measured pIC50 readings.

# smilesInput, pIC50
data = [
    ("O=C(O)c1cccc(N/N=C/c2cccs2)c1", "< 4.00"),
    ("CC(C)(C)c1ccc(-c2noc(CCC(=O)Nc3cccnc3)n2)cc1", "> 6.00"),
    ("Cc1ccc(S(=O)(=O)Nc2cccc3cccnc23)cc1", "< 4.00"),
    ("Cc1cc(C(=O)Nc2cccc(C(=O)O)c2)oc1C", "< 4.00"),
]

====

- measuredTarget: Hypoxia-inducible factor 1-alpha (Homo sapiens) (UniProt Q16665)
- Sequence (Q16665 whole entry, looked up): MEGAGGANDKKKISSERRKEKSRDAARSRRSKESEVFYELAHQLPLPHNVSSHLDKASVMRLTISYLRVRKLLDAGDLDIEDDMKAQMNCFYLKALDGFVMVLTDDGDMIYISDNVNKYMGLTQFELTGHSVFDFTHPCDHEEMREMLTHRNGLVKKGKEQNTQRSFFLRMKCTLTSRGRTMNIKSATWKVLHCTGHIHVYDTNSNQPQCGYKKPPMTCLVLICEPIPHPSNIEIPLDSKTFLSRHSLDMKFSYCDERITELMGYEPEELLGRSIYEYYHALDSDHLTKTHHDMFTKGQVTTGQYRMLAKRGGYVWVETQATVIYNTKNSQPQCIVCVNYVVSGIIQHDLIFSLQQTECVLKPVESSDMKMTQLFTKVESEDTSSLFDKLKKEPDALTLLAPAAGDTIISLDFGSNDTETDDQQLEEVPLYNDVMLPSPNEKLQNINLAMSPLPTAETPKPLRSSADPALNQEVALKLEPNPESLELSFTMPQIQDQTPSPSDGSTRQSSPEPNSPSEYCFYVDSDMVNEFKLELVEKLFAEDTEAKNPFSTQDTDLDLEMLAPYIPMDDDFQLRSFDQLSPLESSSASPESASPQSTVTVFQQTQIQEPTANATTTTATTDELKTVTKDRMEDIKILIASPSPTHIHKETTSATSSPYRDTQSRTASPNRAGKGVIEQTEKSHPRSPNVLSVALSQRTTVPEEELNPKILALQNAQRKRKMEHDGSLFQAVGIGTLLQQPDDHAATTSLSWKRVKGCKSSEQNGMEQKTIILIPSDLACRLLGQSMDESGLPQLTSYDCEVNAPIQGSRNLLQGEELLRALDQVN
- assayExplanation: HIF-2a and HIF-1a reporter inhibition panel, dose response, selectivity assay for HIF-2a inhibitor project, cell-based, luminescence (AID 651581)
- protocolConditions: HIF-1a, run 1

# smilesInput, IC50
records = [
    ("Cc1ccc(C(C)C)c(OCc2ccc(C(=O)N/N=C/c3ccc(C(=O)O)cc3)cc2)c1", "> 99 µM"),
    ("C/C(=N\\OCc1cccc(C(=O)O)c1)c1ccc(Cl)cc1", "> 99 µM"),
    ("Cc1ccc(C(C)C)c(OCc2ccc(-c3nnco3)cc2)c1", "> 99 µM"),
    ("O=S(=O)(Nc1cccc2cccnc12)c1ccccc1", "> 99 µM"),
    ("O=C(OCC(F)(F)F)c1cccc(COc2ccc3ccccc3c2)c1", "> 99 µM"),
    ("NNC(=O)c1cccc(COc2ccc3c(c2)CCC3)c1", "> 99 µM"),
    ("CCOc1ccc(OCc2cccc(C(=O)N/N=C/c3cccnc3)c2)cc1", "> 99 µM"),
    ("Cc1ccc(-n2nc3ccc(N)cc3n2)c(C)c1", "> 99 µM"),
    ("COc1cc(OC)cc(-c2nnc(Nc3nc4c(F)cccc4s3)o2)c1", "> 99 µM"),
    ("N#C/C(=C\\c1ccccc1)C(=O)N(c1ccccn1)C1CCCCC1", "25.8 µM"),
    ("CCc1ccc(S(=O)(=O)ON2C(=O)c3ccccc3C2=O)cc1", "25.1 µM"),
    ("Cc1ccc(NC(=S)NNc2ncc(C(F)(F)F)cc2Cl)cc1", "20.4 µM"),
    ("Cc1nn(-c2ccccc2)c(Cl)c1/C=N/Nc1ccc(Cl)c(C(=O)O)c1", "> 99 µM"),
    ("CC(C)(C)c1ccc(-c2noc(CCC(N)=O)n2)cc1", "> 99 µM"),
    ("COC(=O)c1cccc(NC(=O)NC(=O)c2ccccc2Cl)c1", "> 99 µM"),
    ("CC(=O)Nc1ccc(OS(=O)(=O)c2c(C)cc(C)cc2C)cc1", "80 µM"),
    ("Cc1ccc(S(=O)(=O)Nc2cccc3cccnc23)c([N+](=O)[O-])c1", "> 99 µM"),
    ("COc1ccc(OCc2cccc(C(=O)O)c2)cc1", "19 µM"),
    ("CCOc1ccc(-c2cc(CCCC(=O)Nc3cc(OC)ccc3OC)no2)cc1", "4.99 µM"),
    ("CCOC(=O)CNC(=O)CSc1nnc(NC(=O)c2ccc(C)cc2)s1", "> 99 µM"),
    ("COc1ccccc1N1C(=O)C=C(Sc2nc(C)cc(C)n2)C1=O", "68.3 µM"),
]
